Assay: Pharmacokinetic studies of ERX-315
Type: in vivo, mice
Conditions: mouse, blood; 16 hr, single oral 10 mg/kg in captisol; read-out: Blood

compound: CC(C)COc1cc(C(=O)Nc2ccc(C(=O)N[C@H]3CC[C@H](C(=O)Nc4cnc5ccccc5c4)CC3)cc2OCC(C)C)ccc1NC(=O)c1ccc(F)c(OCCO)c1 [TK315]
concentration at 16 h: 427 ng/mL

###

Test: Pharmacokinetic studies of ERX-315
Type: in vivo, mice
Conditions: mouse, plasma, 10 mg/kg; oral, captisol

mol: CC(C)COc1cc(C(=O)Nc2ccc(C(=O)N[C@H]3CC[C@H](C(=O)Nc4cnc5ccccc5c4)CC3)cc2OCC(C)C)ccc1NC(=O)c1ccc(F)c(OCCO)c1
half-life: ~4.5 h

###

Assay: Pharmacokinetic profile of TX-542
Type: in vivo
Conditions: mouse, tumor, intraperitoneal, 10 mg/kg; 24 h after the last dose; read-out: corresponding tumor concentration
Method: FIG. 58: PK properties of TX-542 indicate a half-life in plasma of 8 h and accumulation over time in tumor. To establish the pharmacokinetic (PK) profile of TX-542, the inventors worked with the UTSW preclinical pharmacology core to characterize pharmacologic properties of TX-542 (FIG. 58). These studies indicated an 8-h half-life of TX-542 in the plasma, with drug detectable in both the liver and kidney after intraperitoneal (i.p.) administration.
endpoint.label: concentration at 24 h

compound: NCCC(=O)Nc1ccc(C(=O)Nc2ccc(C(=O)NCCc3ccc4ccccc4c3)cc2OCC2CCCCC2)cc1OCCO [TX-542]
reported.result: > 200 nM

###

System: OCa cells
Test: ER stress (ERS)/UPR induction in OCa cells, RT-PCR and western
Assay type: cell-based
Conditions: OCa cells; read-out: IC50 for inducing ERS
pIC50: −log10 of the molar value.

mol: CC(C)COc1cc(C(=O)Nc2ccc(C(=O)N[C@H]3CC[C@H](C(=O)Nc4cnc5ccccc5c4)CC3)cc2OCC(C)C)ccc1NC(=O)c1ccc([N+](=O)[O-])c(OCCO)c1
pIC50: 7.00 to 7.30

###

Experiment: Pharmacokinetic studies of ERX-315
Type: in vivo, mice
Conditions: mouse, blood; 4 hr, single oral 10 mg/kg in captisol; read-out: Blood
endpoint.label: concentration at 4 h (ng/mL)

molecule: CC(C)COc1cc(C(=O)Nc2ccc(C(=O)N[C@H]3CC[C@H](C(=O)Nc4cnc5ccccc5c4)CC3)cc2OCC(C)C)ccc1NC(=O)c1ccc(F)c(OCCO)c1 [TK315]
endpoint.label: concentration at 4 h
reported.result: 16000

###

Assay: Pharmacokinetic studies of ERX-315
Type: in vivo, mice
Details: mouse, blood; 8 hr, single oral 10 mg/kg in captisol; read-out: Blood

mol: CC(C)COc1cc(C(=O)Nc2ccc(C(=O)N[C@H]3CC[C@H](C(=O)Nc4cnc5ccccc5c4)CC3)cc2OCC(C)C)ccc1NC(=O)c1ccc(F)c(OCCO)c1
concentration at 8 h (ng/mL): 823

###

Experiment: Pharmacokinetic studies of ERX-315
Format: in vivo, mice
Conditions: mouse, blood; 1 hr, single oral 10 mg/kg in captisol
endpoint.label: concentration at 1 h (ng/mL)

mol: CC(C)COc1cc(C(=O)Nc2ccc(C(=O)N[C@H]3CC[C@H](C(=O)Nc4cnc5ccccc5c4)CC3)cc2OCC(C)C)ccc1NC(=O)c1ccc(F)c(OCCO)c1
reported.result: 2400
